molecular target: human glucagon-like peptide 1 receptor (GLP-1R) (human, UniProt P43220 24-463); assay: cell-based or functional assay
Sequence (P43220 24-463): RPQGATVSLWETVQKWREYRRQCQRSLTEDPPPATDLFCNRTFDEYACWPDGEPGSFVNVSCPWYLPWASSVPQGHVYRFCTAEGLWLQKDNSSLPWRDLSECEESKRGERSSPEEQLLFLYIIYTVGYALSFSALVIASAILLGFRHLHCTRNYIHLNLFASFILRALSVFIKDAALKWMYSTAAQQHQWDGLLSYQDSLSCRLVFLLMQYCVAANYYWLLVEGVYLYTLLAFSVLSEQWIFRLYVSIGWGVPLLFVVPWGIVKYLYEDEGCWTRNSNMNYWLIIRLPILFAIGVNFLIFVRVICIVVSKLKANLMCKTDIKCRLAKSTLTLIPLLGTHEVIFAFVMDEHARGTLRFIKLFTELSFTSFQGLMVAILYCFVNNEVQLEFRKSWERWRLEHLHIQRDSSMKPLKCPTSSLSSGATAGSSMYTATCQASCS
EC50 (nM) GLP-1R, cAMP formation vs 0.1 nM: less than gives fulfilled; not less than gives not fulfilled.

>  <Binder>
HXQGTFTSDYSKYLDSKAAHDFVEWLLSA (Aib at position 2; K(Dodecanoyl-γ-Glu) at position 17; C-terminal amide (NH2)) [Compound 14]

>  <Discrete label>
not fulfilled

$$$$
>  <Binder>
H-HSQGTFTSDYSKYLDSKAAHDFVEWLLRA-NH2 [Compound 1]

>  <Discrete label>
fulfilled

$$$$
>  <Binder>
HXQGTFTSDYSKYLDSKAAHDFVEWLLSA (Aib at position 2; K(Hexadecanoyl-γ-Glu) at position 17; C-terminal amide (NH2)) [Compound 7]

>  <Discrete label>
not fulfilled

$$$$
>  <Binder>
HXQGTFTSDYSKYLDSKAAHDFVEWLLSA (Aib at position 2; K(Hexadecanoyl-[3-Aminopropanoyl]) at position 17; C-terminal amide (NH2)) [Compound 15]

>  <Discrete label>
not fulfilled

$$$$
>  <Binder>
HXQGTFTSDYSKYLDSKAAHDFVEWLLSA (Aib at position 2; K(Hexadecanoyl-[8-Aminooctanoyl]) at position 17; C-terminal amide (NH2)) [Compound 16]

>  <Discrete label>
not fulfilled

$$$$
>  <Binder>
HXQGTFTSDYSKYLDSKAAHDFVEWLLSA (Aib at position 2; K(Hexadecanoyl-ε-Lys) at position 17; C-terminal amide (NH2)) [Compound 17]

>  <Discrete label>
fulfilled

$$$$
